# System: LoVo/DX
# protocol: cells
# Format: cell-based, human
# details: RI = (IC50 for LoVo/DX)/(IC50 for LoVo)
# Text: The A549 cell line was purchased from the European Collection of Authenticated Cell Cultures (ECACC, Salisbury, UK). The MCF-7, LoVo and LoVo/DX cell lines was purchased from American Type Culture Collection (ATCC, Manassas, VA, USA). All the cell lines are maintained in the Institute of Immunology and Experimental Therapy (IIET), Wroclaw, Poland. […]
measuredQuantity: RI (resistance index)

compound	experimentalTarget	observed
C=CS(=O)(=O)NC1CCc2cc(OC)c(OC)c(OC)c2-c2ccc(NC)c(=O)cc21 (stereo not shown) [Compound 19]	LoVo/DX	36.7
CNc1ccc2c(cc1=O)[C@@H](NC(=O)C(Cl)Cl)CCc1cc(OC)c(OC)c(OC)c1-2 [Compound 10]	LoVo/DX	25.8
CNc1ccc2c(cc1=O)[C@@H](NC(=O)c1ccccc1)CCc1cc(OC)c(OC)c(OC)c1-2 [Compound 12]	LoVo/DX	11.8
CNc1ccc2c(cc1=O)C(NS(=O)(=O)CCN1CCOCC1)CCc1cc(OC)c(OC)c(OC)c1-2 (stereo not shown) [Compound 20]	LoVo/DX	165.4
CCCC(=O)N[C@H]1CCc2cc(OC)c(OC)c(OC)c2-c2ccc(NC)c(=O)cc21 [Compound 5]	LoVo/DX	20.2
CNc1ccc2c(cc1=O)C(NC(=O)CCC(F)(F)F)CCc1cc(OC)c(OC)c(OC)c1-2 (stereo not shown) [Compound 11]	LoVo/DX	27.8
CCC(=O)NC1CCc2cc(OC)c(OC)c(OC)c2-c2ccc(NC)c(=O)cc21 (stereo not shown) [Compound 4]	LoVo/DX	28.0

---

# Tested on: LoVo/DX
# protocol: cells
# Type: cell-based, human
# details: Homo sapiens, LoVo/DX, 72 h, read-out: IC50 LoVo/DX
pIC50: −log10 of the molar value.
Reported values of pIC50 for individual entries

compound	experimentalTarget	pIC50
CNc1ccc2c(cc1=O)[C@@H](NC(=O)c1ccccc1Cl)CCc1cc(OC)c(OC)c(OC)c1-2	LoVo/DX	8.02
CNc1ccc2c(cc1=O)C(NC(=O)C(C)C)CCc1cc(OC)c(OC)c(OC)c1-2 (centres unmarked)	LoVo/DX	6.77
CNc1ccc2c(cc1=O)[C@@H](NC(=O)c1cccc(F)c1)CCc1cc(OC)c(OC)c(OC)c1-2	LoVo/DX	6.99
CNc1ccc2c(cc1=O)C(NC(=O)CCC(F)(F)F)CCc1cc(OC)c(OC)c(OC)c1-2 (centres unmarked)	LoVo/DX	6.54
CNc1ccc2c(cc1=O)C(NS(=O)(=O)N(C)C)CCc1cc(OC)c(OC)c(OC)c1-2 (centres unmarked)	LoVo/DX	6.27
CNc1ccc2c(cc1=O)[C@@H](N)CCc1cc(OC)c(OC)c(OC)c1-2	LoVo/DX	6.89
CCCCC(=O)NC1CCc2cc(OC)c(OC)c(OC)c2-c2ccc(NC)c(=O)cc21 (centres unmarked)	LoVo/DX	6.99
C=CS(=O)(=O)NC1CCc2cc(OC)c(OC)c(OC)c2-c2ccc(NC)c(=O)cc21 (centres unmarked)	LoVo/DX	6.51
CNc1ccc2c(cc1=O)C(NC(=O)CCl)CCc1cc(OC)c(OC)c(OC)c1-2 (centres unmarked)	LoVo/DX	7.20
CCCCCCCCCCCCCCCC(=O)N[C@H]1CCc2cc(OC)c(OC)c(OC)c2-c2ccc(NC)c(=O)cc21	LoVo/DX	5.61
CNc1ccc2c(cc1=O)C(NS(=O)(=O)CCN1CCOCC1)CCc1cc(OC)c(OC)c(OC)c1-2 (centres unmarked)	LoVo/DX	4.35
CNc1ccc2c(cc1=O)[C@@H](NC(C)=O)CCc1cc(OC)c(OC)c(OC)c1-2	LoVo/DX	6.57
CNc1ccc2c(cc1=O)[C@@H](NC(=O)C(Cl)Cl)CCc1cc(OC)c(OC)c(OC)c1-2	LoVo/DX	7.41
CNc1ccc2c(cc1=O)C(NS(N)(=O)=O)CCc1cc(OC)c(OC)c(OC)c1-2 (centres unmarked)	LoVo/DX	5.19
CNc1ccc2c(cc1=O)[C@@H](NC(=O)c1ccncc1)CCc1cc(OC)c(OC)c(OC)c1-2	LoVo/DX	6.02
CCC(=O)NC1CCc2cc(OC)c(OC)c(OC)c2-c2ccc(NC)c(=O)cc21 (centres unmarked)	LoVo/DX	6.57
CCCC(=O)N[C@H]1CCc2cc(OC)c(OC)c(OC)c2-c2ccc(NC)c(=O)cc21	LoVo/DX	6.71
CNc1ccc2c(cc1=O)[C@@H](NC(=O)c1ccccc1)CCc1cc(OC)c(OC)c(OC)c1-2	LoVo/DX	7.00
CNc1ccc2c(cc1=O)[C@@H](NS(=O)(=O)c1ccc(C(F)(F)F)cc1)CCc1cc(OC)c(OC)c(OC)c1-2	LoVo/DX	5.21
CNc1ccc2c(cc1=O)[C@@H](NC(=O)c1cccnc1)CCc1cc(OC)c(OC)c(OC)c1-2	LoVo/DX	6.08
